Every entry's value here was drawn from the supplement of paper PMC9112550.

Tested on: Escherichia coli TOP10;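 also: peptides expressed intracellularly from a pBAD plasmid library in pooled LB shake-flask culture, induced with 0.3% L-arabinose, DNA abundance read by NGS, three biological replicates, DESeq2 with apeglm shrinkage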
Experiment: shrunken log2 fold change of peptide-encoding DNA abundance (4.5 h post-induction vs induction); higher = less antimicrobial activity (less host growth inhibition)
Details: time post-induction: 4.5 h; library: site-saturation at positions 5, 18, 19, 20
Is shrunken log2 fold change at least 0.009? Then t. If not, f.

{"primary sequence": "RRIRDRPPRLPRPRPRPQRFPRP", "class label": "t"}
{"primary sequence": "RRIRPRPPRLPRPRPRPRTYPRP", "class label": "f"}
{"primary sequence": "RRIRARPPRLPRPRPRPSKFPRP", "class label": "f"}

Then this sequence:
input: Could you verify whether the entry `RRIRQRPPRLPRPRPRPWFIPRP` shows shrunken log2 fold change of no less than 0.009?
output: f
